- protocol_summary: AUC (0 to infinity) in BALB/c mouse at 10 mg/kg, po measured upto 24 hrs by LC/MS-MS analysis
- Format: ADME, organism-based
- conditions: in vivo
metric: AUC(0-inf) (ng·h/mL)

[[record]]
chemical_structure = "CC1(C)CC[C@]2(C(=O)OCc3ccccc3)CC[C@]3(C)C(=CC[C@@H]4[C@@]5(C)Cc6c(C(=O)O)noc6[C@@](C)(CO)[C@@H]5CC[C@]43C)[C@@H]2C1"
metric = "AUC(0-inf)"
observed_measurement = 2720

[[record]]
chemical_structure = "CCOC(=O)c1noc2c1C[C@@]1(C)[C@@H](CC[C@]3(C)[C@@H]1CC=C1[C@@H]4CC(C)(C)CC[C@]4(C(=O)OCc4ccccc4)CC[C@]13C)[C@]2(C)COC(=O)CCC(=O)N1CCOCC1"
metric = "AUC(0-inf)"
observed_measurement = 9970


P. CC1(C)CC[C@]2(C(=O)OCc3ccccc3)CC[C@]3(C)C(=CC[C@@H]4[C@@]5(C)Cc6c(C(=O)O)noc6[C@@](C)(COC(=O)CCC(=O)N6CCOCC6)[C@@H]5CC[C@]43C)[C@@H]2C1
Q. CCOC(=O)c1noc2c1C[C@@]1(C)[C@@H](CC[C@]3(C)[C@@H]1CC=C1[C@@H]4CC(C)(C)CC[C@]4(C(=O)OCc4ccccc4)CC[C@]13C)[C@]2(C)CO
Query: Consider P and Q . Which of these has its AUC(0-inf) at a higher number? State your choice using its label.
Result: Q
(Q: 23400 ng·h/mL, P: 2020 ng·h/mL)

###

- Test system: RAW264.7
- protocol_summary: Cytotoxicity against mouse RAW264.7 cells assessed as cell viability at 40 uM measured after 24 hrs by MTT assay
- Assay type: toxicity, cell-based
- conditions: raw264.7, 24 h
metric: Activity

[[record]]
chemical_structure = "CCOC(=O)c1noc2c1C[C@@]1(C)[C@@H](CC[C@]3(C)[C@@H]1CC=C1[C@@H]4CC(C)(C)CC[C@]4(C(=O)OCc4ccccc4)CC[C@]13C)[C@]2(C)COC(=O)c1ccccc1C(=O)N1CCN(C(C)C)CC1"
measured_on = "RAW264.7"
observed_measurement = "Non-toxic"

[[record]]
chemical_structure = "CCOC(=O)c1noc2c1C[C@@]1(C)[C@@H](CC[C@]3(C)[C@@H]1CC=C1[C@@H]4CC(C)(C)CC[C@]4(C(=O)OCc4ccccc4)CC[C@]13C)[C@]2(C)COC(=O)[C@H](CCSC)NC(=O)OC(C)(C)C"
measured_on = "RAW264.7"
observed_measurement = "Non-toxic"


###

- protocol_summary: Tmax in BALB/c mouse at 10 mg/kg, po measured upto 24 hrs by LC/MS-MS analysis
- Assay type: ADME, organism-based
- conditions: in vivo
metric: Tmax (h)

Worked examples, 2 molecules total:
[[record]]
chemical_structure = "CCOC(=O)c1noc2c1C[C@@]1(C)[C@@H](CC[C@]3(C)[C@@H]1CC=C1[C@@H]4CC(C)(C)CC[C@]4(C(=O)OCc4ccccc4)CC[C@]13C)[C@]2(C)CO"
metric = "Tmax"
result_unit = "h"
observed_measurement = 4

[[record]]
chemical_structure = "CCOC(=O)c1noc2c1C[C@@]1(C)[C@@H](CC[C@]3(C)[C@@H]1CC=C1[C@@H]4CC(C)(C)CC[C@]4(C(=O)OCc4ccccc4)CC[C@]13C)[C@]2(C)COC(=O)CCC(=O)N1CCOCC1"
metric = "Tmax"
result_unit = "h"
observed_measurement = 2.25


1. CC1(C)CC[C@]2(C(=O)OCc3ccccc3)CC[C@]3(C)C(=CC[C@@H]4[C@@]5(C)Cc6c(C(=O)O)noc6[C@@](C)(COC(=O)CCC(=O)N6CCOCC6)[C@@H]5CC[C@]43C)[C@@H]2C1
2. CC1(C)CC[C@]2(C(=O)OCc3ccccc3)CC[C@]3(C)C(=CC[C@@H]4[C@@]5(C)Cc6c(C(=O)O)noc6[C@@](C)(CO)[C@@H]5CC[C@]43C)[C@@H]2C1
Query: Field: lower recorded Tmax (choose 1 or 2 ) State your choice using its label.
Result: 1
